target: HLA-A*24:02 (Homo sapiens, UniProt P04439, D101N/D140Y/D185E/E176V/E190D/F33S/G103R/G107R/I119L/I121M/I306V/K335N/L105A/L180Q/L300P/N151K/N90K/Q86E/Q94H/R106L/R138H/R89G/T104I/T345S/V100E/W191G/Y123F); experiment: MHC binding assay (UV-ligand exchange, beta2m ELISA); conditions: binding to HLA-A*24:02, ranged by peptide exchange yield
measurement_name: Peptide exchange

56 (IYLDRTLLTTI) [compound 56]    ++++ (≥75% = ++++)
35 (VFHDHTYHL) [compound 35]    ++++ (≥75% = ++++)
26 (IYPDASLLIQNI) [compound 26]    ++++ (≥75% = ++++)
